System: LCC6-WT: human breast carcinoma
Experiment: cytotoxicity assay of second generation taxoids
Format: cell-based
Conditions: 72 h drug exposure; read-out: LCC6-WT IC50
pIC50: −log10 of the molar value.
Quick rule for you: pIC50 at 9 or higher means Fulfilled, lower means Not fulfilled.

CCC(=O)OC1C(=O)C2(C)C(O)CC3OCC3(OC(C)=O)C2C(OC(=O)c2cccc(OC)c2)C2(O)CC(OC(=O)C(O)C(NC(=O)OC(C)(C)C)[C@H]3CC3(C)C)C(C)=C1C2(C)C (some centres unmarked) | Fulfilled
CCC(=O)OC1C(=O)C2(C)C(O)CC3OCC3(OC(C)=O)C2C(OC(=O)c2cccc(F)c2)C2(O)CC(OC(=O)C(O)C(C=C(C)C)NC(=O)OC(C)(C)C)C(C)=C1C2(C)C (centres unmarked) | Fulfilled

*Q* I'd appreciate it if you could say whether CCC(=O)OC1C(=O)C2(C)C(O)CC3OCC3(OC(C)=O)C2C(OC(=O)c2cccc(F)c2)C2(O)CC(OC(=O)C(O)C(CC(C)C)NC(=O)OC(C)(C)C)C(C)=C1C2(C)C (centres unmarked) has pIC50 at least equal to 9.
*A* Fulfilled

*Q* I'd appreciate it if you could say whether C=Cc1cccc(C(=O)OC2C3C4(OC(C)=O)COC4CC(O)C3(C)C(=O)C(OC(=O)CC)C3=C(C)C(OC(=O)C(O)C(C=C(C)C)NC(=O)OC(C)(C)C)CC2(O)C3(C)C)c1 (centres unmarked) has pIC50 at least equal to 9.
*A* Not fulfilled

Measured values drawn from patent US6500858B2 for this set.
